target: human IL-1β (human, UniProt P01584 117-269); experiment: cell-based or functional assay
Provide the reported Fab IL-1β ND10 of each item.
# output: bare number, implied unit nM

Per the record, Fab ABT1-95/ABT2-13 (Fab, V domains shown) VH: EVQLLESGGGLVQPGGSLRLSCAASGFTFRDYVMYWARQAPGKGLEWVSRIDPMGSSTYYADSVKGRFTISRDNSKNTLYLQMNSLRAEDTAVYYCAKPEGNFDYWGQGTLVTVSS VL: DIQMTQSPSSLSASVGDRVTITCRASQPIHGNLRWYQQKPGKAPKLLIYNISNLQSGVPSRFSGSGSGTDFTLTISSLQPEDFATYYCQQGYRWPVTFGQGTKVEIKR has Fab IL-1β ND10 of 400

Per the record, Fab ABT1-96/ABT2-46 (Fab, V domains shown) VH: EVQLLESGGGLVQPGGSLRLSCAASGFTFNQYNMFWVRQAPGKGLEWVSVISGSGRFTYADSVKGRFTISRDNSKNTLYLQMNSLRAEDTAVYYCAKGWWRRDPPFDYWGQGTLVTVSS VL: DIQMTQSPSSLSASVGDRVTITCRASQSIIEWLSWYQQKPGKAPKLLIYRTSVLQSGVPSRFSGSGSGTDFTLTISSLQPEDFATYYCQQNEFWPFTFGQGTKVEIKR has Fab IL-1β ND10 of 400

Per the record, Fab ABT1-122/ABT2-108 (Fab, V domains shown) VH: EVQLLESGGGLVQPGGSLRLSCAASGFTFAEYTMMWVRQAPGKGLEWVSRIGQDGKNTYYADSVKGRFTISRDNSKNTLYLQMNSLRAEDTAVYYCAKYTGRVGVHHLFDYWGQGTLVTSS VL: DIQMTQSPSSLSASVGDRVTITCRASQPIWTELNWYQQKPGKAPKLLIYGSSSLQSGVPRFSGSGSGTDFTLTISSLQPEDFATYYCQQFAYFPATFGQGTKVEIKR has Fab IL-1β ND10 of 50

Per the record, Fab ABT1-141/ABT2-108 (Fab, V domains shown) VH: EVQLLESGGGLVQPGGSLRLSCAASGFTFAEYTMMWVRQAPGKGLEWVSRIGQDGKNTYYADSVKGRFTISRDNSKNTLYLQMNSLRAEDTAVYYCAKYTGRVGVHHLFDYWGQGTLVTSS VL: DIQMTQSPSSLSASVGDRVTITCRASQWIQKQLAWYQQKPGKAPKLLIYSSSYLQSGVPRFSGSGSGTDFTLTISSLQPEDFATYYCQQHLRVPFTFGQGTKVEIKR has Fab IL-1β ND10 of 15

Per the record, Fab ABT1-141/ABT2-65 (Fab, V domains shown) VH: EVQLLESGGGLVQPGGSLRLSCAASGFTFEDYQMGWVRQAPGKGLEWVSSISAMGNRTYYADSVKGRFTISRDDSKNTLYLQMNSLRAEDTAVYYCAKNLVRTQSKMWMFDYWGQGTLVTVSS VL: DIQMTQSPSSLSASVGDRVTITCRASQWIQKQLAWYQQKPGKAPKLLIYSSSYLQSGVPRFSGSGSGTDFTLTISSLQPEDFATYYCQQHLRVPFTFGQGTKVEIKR has Fab IL-1β ND10 of 300

Per the record, Fab ABT1-96/ABT2-42 (Fab, V domains shown) VH: EVQLLESGGGLVQPGGSLRLSCAASGFTFNQYNMFWVRQAPGKGLEWVSVISGSGRFTYADSVKGRFTISRDNSKNTLYLQMNSLRAEDTAVYYCAKGWWRRDPPFDYWGQGTLVTVSS VL: DIQMTQSPSSLSASVGDRVTITCRASQYIEKWLTWYQQKPGKAPTLLIYRGSLLQSGVPRFSGSGSGTDFTLTISSLQPEDFATYYCQQTEYWPFTFGQGTKVEIKR has Fab IL-1β ND10 of 10

Per the record, Fab ABT1-122/ABT2-65 (Fab, V domains shown) VH: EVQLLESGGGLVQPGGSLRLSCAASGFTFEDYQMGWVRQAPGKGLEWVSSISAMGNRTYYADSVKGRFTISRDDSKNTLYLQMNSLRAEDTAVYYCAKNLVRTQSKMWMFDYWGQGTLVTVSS VL: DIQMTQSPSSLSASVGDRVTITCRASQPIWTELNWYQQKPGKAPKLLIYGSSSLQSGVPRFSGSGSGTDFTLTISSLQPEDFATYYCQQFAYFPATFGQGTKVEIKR has Fab IL-1β ND10 of 1500

Per the record, Fab ABT1-96/ABT2-13 (Fab, V domains shown) V domain 1: EVQLLESGGGLVQPGGSLRLSCAASGFTFNQYNMFWVRQAPGKGLEWVSVISGSGRFTYADSVKGRFTISRDNSKNTLYLQMNSLRAEDTAVYYCAKGWWRRDPPFDYWGQGTLVTVSS V domain 2: EVQLLESGGGLVQPGGSLRLSCAASGFTFRDYVMYWARQAPGKGLEWVSRIDPMGSSTYYADSVKGRFTISRDNSKNTLYLQMNSLRAEDTAVYYCAKPEGNFDYWGQGTLVTVSS has Fab IL-1β ND10 of 80

Per the record, Fab ABT1-98/ABT2-76 (Fab, V domains shown) VH: EVQLLESGGGLVQPGGSLRLSCAASGFTFDGYIMSWVRQAPGKGLEWVSTISPLGSVTYYADSVKGRFTISRDNSKNTLYLQMNSLRAEDTAVYYCAKKGPWFDYWGQGTLVTVSS VL: DIQMTQSPSSLSASVGDRVTITCRASQSIDRWLAWYQQKPGKAPKLLIYRGSILQSGVPSRFSGSGSGTDFTLTISSLQPEDFATYYCQQVAFWPPTFGQGTKVEIKR has Fab IL-1β ND10 of 1500

Per the record, Fab ABT1-6-23/ABT2-46 (Fab, V domains shown) VH: EVQLLESGGGLVQPGGSLRLSCAASGFTFVRYDMAWVRQAPGKGLEWVSSIYKSGALTSYDSVKGRFTISRDNSKNTLYLQMNSLRAEDTAVYYCAKGWASFDYWGQGTLVTVSS VL: DIQMTQSPSSLSASVGDRVTITCRASQSIIEWLSWYQQKPGKAPKLLIYRTSVLQSGVPSRFSGSGSGTDFTLTISSLQPEDFATYYCQQNEFWPFTFGQGTKVEIKR has Fab IL-1β ND10 of 150
